- Test system: UACC-62 melanoma
- Measurement Protocol: NCI tumour cell line growth inhibition, 48 h
Listing: TGI of selected molecules
Provide only the numeric value, understood in µM.

Example entries and their recorded answers appear below.
In [3]: df
Out[3]:
                                   molecule  reading_unit  value_measured
0  CCC(=O)[C@H](C)[C@@H](OC(=O)[C@H](C)CC)[C@H](C)[C@H]1OC(CC)=C(C)C(=O)[C@@H]1C            µM            27.7
1  COC(=O)c1ccccc1NC(=O)C(=O)Cc1nc2c3c(ccc2[nH]c1=O)C(=O)c1ccccc1C3=O            µM            20.4
2  Cc1cn2c(/C=N/N=C(N)N)c(-c3cccc([N+](=O)[O-])c3)nc2s1            µM            3.07
3     Nc1ccccc1C#C/C=C\C#Cc1ccccc1OC(F)(F)F            µM              21

Fill in: TGI of O=C(CCNC12CC3CC(CC(C3)C1)C2)c1ccccc1 is ___
39.6

Fill in: TGI of NS(=O)(=O)OC[C@@H]1C[C@@H](n2ccc3c(NC4CCc5ccccc54)ncnc32)C[C@@H]1O (stereo not given in full) is ___
20.6

====

- Test system: TK-10 renal
- Measurement Protocol: NCI tumour cell line growth inhibition, 48 h
Quantity Measured: TGI

Example entries and their recorded answers appear below.
Compound	Value Measured
CC1CCc2nc[nH]c(=O)c21 (stereo unspecified)	> 100 µM
C=C(C)C(=O)OC1C/C(CO)=C\C(O)C/C(C)=C/C2OC(=O)C(=C)C21 (stereo unspecified)	41.2 µM
Cc1cc(Cc2cc(C)c(N)cc2N)c(N)cc1N	> 100 µM

Fill in: TGI of c1ccc(N=c2sc3ccccc3nc2Nc2ccccc2)cc1 is ___
> 100 µM

Fill in: TGI of COc1cc2c(c3oc4c(O)cccc4c(=O)c13)CC(C(C)(O)CO)O2 (stereo unspecified) is ___
> 100 µM

Fill in: TGI of COc1ccc(CC2c3cc4c(cc3CCN2C)OCO4)c(C=O)c1OC (stereo unspecified) is ___
> 100 µM

Fill in: TGI of O=C1/C(=C/c2ccc(O)c(O)c2)CCC/C1=C\c1ccc(O)c(O)c1 is ___
14.9 µM

Fill in: TGI of C=CCO[C@H]1CO[C@H]2[C@@H]1OC[C@@H]2Oc1ccc(Nc2ccnc(Nc3ccc(O[C@H]4CO[C@H]5[C@@H]4OC[C@@H]5OCC=C)c(Cl)c3)n2)cc1Cl is ___
3.63 µM

Fill in: TGI of CCOC(=O)C(C)(C)Oc1ccc2c(-c3ccccc3)cc(=O)oc2c1 is ___
> 100 µM

====

- Test system: UO-31 renal
- Measurement Protocol: NCI tumour cell line growth inhibition, 48 h; in the data active = GI50 below about 0.43 µM; inactive = the rest
Give your call using only these classes: T = active, F = inactive

>>> df
                                   compound  tested_system  category
0  O=C(Nc1ccc(-n2ccc3c(NC(=O)c4ccccc4)nccc32)cc1)c1ccc(Cl)c(C(F)(F)F)c1    UO-31 renal         F
1  CN1CCCCC1CCN1c2ccccc2Sc2ccc(Cl)cc21 (stereo unspecified)    UO-31 renal         F
2  COC([CH2][Hg][n]1cnc2c1c(=O)n(C)c(=O)n2C)CN1C(=O)c2ccccc2S1(=O)=O (stereo unspecified)    UO-31 renal         F
3  COc1cc2c(c(OC)c1OC)-c1ccc(NNC(N)=S)c(=O)cc1[C@@H](NC(C)=O)CC2    UO-31 renal         F
4                  Cc1ccnc2c1ccc1c(C)ccnc12    UO-31 renal         T
5  Fc1[nH]nc2ccc([C@@H]3Nc4ccc5[nH]ncc5c4[C@H]4C5CCC(C5)[C@@H]34)cc12 (stereo partly specified)    UO-31 renal         F
6  Cc1ccc(CN2CCC(C(=O)Nc3ccc(-c4cc5ccccc5[nH]4)cc3)CC2)o1    UO-31 renal         F
7  COc1cc2c(cc1OCCCCN1CCN(CC(=O)Nc3ccc(Cl)cc3C(=O)c3ccccc3Cl)CC1)N=CC1CCCN1C2=O (stereo unspecified)    UO-31 renal         T
8       Cc1ccc2c(C)c3c(ccc4ccccc43)c[n+]2c1    UO-31 renal         F
9  CCC[CH2][Sn]([CH2]CCC)([S]c1cccc2cccnc12)[S]c1cccc2cccnc12    UO-31 renal         T

Hello, I am checking results. What call was entered for Cc1nc2sccn2c1-c1csc(Nc2ccccc2Cl)n1 ?
F

Data origin: PubChem BioAssay (NCI)
